Target Of Assay: proMMP13(1-268) (SEQ ID NO:7) (Homo sapiens)
Assay Details: ThermoFluor binding assay with proMMP13(1-268)
Measurement Parameters: pH 7.0
Kd under 4 µM gets Criterion met, anything at or over 4 µM gets Criterion not met.

Completed entries (count: 5):
CCOc1ccc(C(N)=O)cc1Nc1nc(-c2sc(C(=O)N3CCN(C(C)C)CC3)nc2C)cs1: Criterion not met
CCOC(=O)c1ccc(OCC)c(Nc2nc(-c3sc(N)nc3C)cs2)c1: Criterion met
CCOc1ccc(C(N)=O)cc1Nc1nc(-c2sc(C(=O)N3CCCN(C(C)C)CC3)nc2C)cs1: Criterion not met
CCN(CC)c1nc(C)c(-c2csc(Nc3cc(C(N)=O)ccc3OC(C)C)n2)s1: Criterion not met
COc1ccc(-c2cncn2C)cc1Nc1nc(-c2sc(C)nc2C)cs1: Criterion not met

Here's an entry: Cc1nc(C)c(-c2nc(Nc3cc(S(N)(=O)=O)ccc3OC(C)C)sc2F)s1 . Is its Kd below 4 µM? Criterion met
